# System: Liver microsomes
# PROTOCOL DETAILS: Metabolic stability in Sprague-Dawley rat liver microsome
# Type: ADME
Mark each entry satisfied if its Stability sits below 20%, and not satisfied for all others.

As a guide, the following entries are already answered.
>>> df
                                 smiles_str          label
0  CC(C)CCNC(=O)c1ccc(N2CCC(Oc3cc(F)ccc3F)CC2)nn1      satisfied
1  NC(=O)c1ccc(N2CCC(Oc3cc(F)ccc3Cl)CC2)nn1  not satisfied
2   Clc1ccccc1OC1CCN(c2ccc(-n3cccc3)nn2)CC1      satisfied

Q: Please check: Stability for Cc1nccn1-c1ccc(N2CCC(Oc3cc(F)ccc3Cl)CC2)nn1 , strictly under 20% or not?
Result: not satisfied

Q: Please check: Stability for Clc1ccccc1OC1CCN(c2ccc(-c3nnc(Cc4ccccc4)o3)nn2)CC1 , strictly under 20% or not?
Result: satisfied

Q: Please check: Stability for CC(C)CCNC(=O)c1ccc(N2CCC(Oc3cccc(F)c3F)CC2)nn1 , strictly under 20% or not?
Result: satisfied

Q: Please check: Stability for Clc1ccccc1OC1CCN(c2ccc(-c3nc(Cc4ccccc4)no3)nn2)CC1 , strictly under 20% or not?
Result: not satisfied
